Data origin, for the record: patent US10004702B2

Experiment: Water solubility
Assay type: physicochemical
Conditions: thermodynamic from solid, room temperature, LC-UV-MS
measured quantity: solubility at 24 h (µg/mL)
Numbers only, in µg/mL.

Find the measured solubility at 24 h of N=C(N)NCCCCCCCCN(CCCCCCCCNC(=N)NCC1CC1)C(=O)N(CCCCCCCCNC(=N)N)CCCCCCCCNC(=N)NCC1CC1 [Compound 28] and report it. 292

###

Test: Parallel Artificial Membrane Permeability Assay (PAMPA)
Assay type: in vitro ADME
Settings: pH 7.4, 5 h at room temperature, read-out: apparent permeability (Papp)
measured quantity: Papp at 5 h, 0.5 mM (×10⁻⁶ cm/s)
Numbers only, in ×10⁻⁶ cm/s.

Find the measured Papp at 5 h, 0.5 mM of N=C(N)NCCCCCCCCN(CCCCCCCCNC(=N)NCC1CC1)C(=O)N(CCCCCCCCNC(=N)N)CCCCCCCCNC(=N)NCC1CC1 and report it. 1.6
